biological target: human IL-6 (human, UniProt P05231 30-212); assay: SPR Biacore, supernatant, Protein A capture, 37 C
Sequence (P05231 30-212 limits assumed): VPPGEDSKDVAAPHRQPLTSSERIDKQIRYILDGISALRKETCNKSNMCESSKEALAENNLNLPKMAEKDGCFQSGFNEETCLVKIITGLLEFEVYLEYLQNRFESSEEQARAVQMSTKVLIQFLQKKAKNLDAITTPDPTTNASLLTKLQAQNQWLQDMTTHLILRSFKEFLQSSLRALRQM
Item-by-item account of kon

Past entries and their recorded results:
Lookup result for Anti-IL-6 antibody, heavy chain S35H, G66D, Q99I / light chain WT (antibody, IgG1, V domains shown, IgG1; variable domains only) VH: EVQLVESGGGLVQPGGSLRLSCAASGFTFSPFAMHWVRQAPGKGLEWVAKISPGGSWTYYSDTVTDRFTFSLDTSKSTAYLQMNSLRAEDTAVYYCARILWGYYALDIWGQGTLVTVSS VL: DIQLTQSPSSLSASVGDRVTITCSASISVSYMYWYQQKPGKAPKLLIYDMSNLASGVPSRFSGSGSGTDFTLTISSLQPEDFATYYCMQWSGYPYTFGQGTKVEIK ; measured kon: 868000 M⁻¹ s⁻¹

Lookup result for Anti-IL-6 antibody, heavy chain S35H, G66D, L100K / light chain M32L, M50D, N52S, M88Q (antibody, IgG1, V domains shown, IgG1; variable domains only; VL is variant III) VH: EVQLVESGGGLVQPGGSLRLSCAASGFTFSPFAMHWVRQAPGKGLEWVAKISPGGSWTYYSDTVTDRFTFSLDTSKSTAYLQMNSLRAEDTAVYYCARQKWGYYALDIWGQGTLVTVSS VL: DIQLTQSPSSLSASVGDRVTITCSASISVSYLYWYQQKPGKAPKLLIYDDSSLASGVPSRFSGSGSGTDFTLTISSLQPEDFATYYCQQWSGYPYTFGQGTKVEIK ; measured kon: 4.29e+06 M⁻¹ s⁻¹

Consider now this further binder.
Lookup result for Anti-IL-6 antibody, heavy chain S35H, G66D / light chain M32L, M50D, N52S, M88Q (antibody, IgG1, V domains shown, IgG1; variable domains only; VL is variant III) VH: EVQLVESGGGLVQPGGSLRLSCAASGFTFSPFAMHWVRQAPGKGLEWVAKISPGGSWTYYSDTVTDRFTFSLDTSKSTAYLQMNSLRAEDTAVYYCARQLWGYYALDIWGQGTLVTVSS VL: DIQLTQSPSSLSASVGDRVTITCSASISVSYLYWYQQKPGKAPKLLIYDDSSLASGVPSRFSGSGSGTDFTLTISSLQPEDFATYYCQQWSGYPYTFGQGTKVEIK ; measured kon: 1.5e+06 M⁻¹ s⁻¹
